Known IC50 of a selection of molecules
Target system: KRAS (G12C)::SOS1 protein-protein interaction (Homo sapiens (Human), UniProt P01116, C118S/C51S/C80L/G12C)
Sequence (P01116 other isoform, or with tags, fused parts or gaps G12C/C51S/C80L/C118S): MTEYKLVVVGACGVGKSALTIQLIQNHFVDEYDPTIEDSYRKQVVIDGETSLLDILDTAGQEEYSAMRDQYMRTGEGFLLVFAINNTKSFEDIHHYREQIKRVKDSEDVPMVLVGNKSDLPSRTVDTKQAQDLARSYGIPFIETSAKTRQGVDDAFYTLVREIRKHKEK
Procedure details: KRAS::SOS1 AlphaScreen binding assay (KRAS G12C)
Test settings: GDP
Just the number please, in nM, no unit attached.

Completed entries (count: 3):
C[C@H](Oc1nc(-c2noc3c2CCC[C@@]32CCCc3sc(N)c(C#N)c32)nc2c1CC[C@]21CNCCO1)[C@@H]1C[C@@H](F)CN1C :: 2
CO[C@H]1C[C@@H]([C@H](C)Oc2nc(-c3onc4c3CCC[C@@]43CCCc4sc(N)c(C#N)c43)nc3c2n(C)c(=O)n3[C@@H]2CCOC2)N(C)C1 :: 1
C[C@H](Oc1nc(-c2onc3c2CCC[C@@]32CCCc3sc(N)c(C#N)c32)nc2c1n(C)c(=O)n2[C@@H]1CCOC1)[C@@H]1CC[C@H](C)N1C :: 2

Problem: Recorded IC50 of C[C@H](Oc1nc(-c2onc3c2CCC[C@@]32CCCc3sc(N)c(C#N)c32)nc2c1n(C)c(=O)n2[C@@H]1CCOC1)[C@@H]1C[C@H](F)CN1C , please.
Result: 2

Problem: Recorded IC50 of CCn1c(=O)n([C@@H]2CCCOC2)c2nc(-c3onc4c3CCC[C@@]43CCCc4sc(N)c(C#N)c43)nc(OC[C@@]34CCCN3C[C@H](F)C4)c21 , please.
Result: 22

Problem: Recorded IC50 of Cc1cn([C@@H]2CCOC2)c2nc(-c3onc4c3CCC[C@@]43CCCc4sc(N)c(C#N)c43)nc(O[C@@H](C)[C@@H]3CCCN3C)c12 , please.
Result: 4

###

Known pIC50 of a selection of compounds
Target system: KRAS (G12D)::SOS1 protein-protein interaction (Homo sapiens (Human), UniProt P01116, G12D)
Sequence (P01116 other isoform, or with tags, fused parts or gaps G12D): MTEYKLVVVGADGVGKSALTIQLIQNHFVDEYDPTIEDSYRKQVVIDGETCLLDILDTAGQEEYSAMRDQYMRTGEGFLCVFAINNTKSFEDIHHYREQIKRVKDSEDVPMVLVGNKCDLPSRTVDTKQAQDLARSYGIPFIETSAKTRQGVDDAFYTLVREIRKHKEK
Procedure details: KRAS::SOS1 AlphaScreen binding assay (KRAS G12D)
Test settings: GDP
Schema: pIC50 number; meaning minus log10 of the concentration expressed in molar units.

Completed entries (count: 5):
C[C@H](Oc1nc(-c2onc3c2CCC[C@@]32CCCc3sc(N)c(C#N)c32)nc2c1n(C)c(=O)n2[C@@H]1CCOC1)[C@@H]1CC[C@H](C)N1C [I-26] :: 9.00
CO[C@H]1C[C@@H](n2c(=O)n(C)c3c(O[C@@H](C)[C@@H]4CCCN4C)nc(-c4onc5c4CCC[C@@]54CCCc5sc(N)c(C#N)c54)nc32)C1 [I-31] :: 9.00
CO[C@H]1C[C@H](n2c(=O)n(C)c3c(O[C@@H](C)[C@@H]4CCCN4C)nc(-c4onc5c4CCC[C@@]54CCCc5sc(N)c(C#N)c54)nc32)C1 [I-16] :: 7.92
C[C@H](Oc1nc(-c2onc3c2CCC[C@@]32CCCc3sc(N)c(C#N)c32)nc2c1[nH]c(=O)n2[C@@H]1CCOC1)[C@@H]1CCCN1C [I-8] :: 9.00
CO[C@@H]1C[C@@H]([C@H](C)Oc2nc(-c3onc4c3CCC[C@@]43CCCc4sc(N)c(C#N)c43)nc3c2CN(C2COC2)C[C@]32CCOC2)N(C)C1 [I-58] :: 9.00

Shifting focus to the compound that follows.
Problem: Recorded pIC50 of Cc1nn([C@@H]2CCOC2)c2nc(-c3onc4c3CCC[C@@]43CCCc4sc(N)c(C#N)c43)nc(O[C@@H](C)[C@@H]3CCCN3C)c12 [I-42] , please.
Result: 8.52

###

Tested on: NCI-H358 cells
Procedure details: NCI-H358 CTG proliferation assay (120 h) (NSCLC, G12C)
Format: cell-based
Test settings: Homo sapiens
Protocol: NCI-H358 cells (ATCC No. CRL-5807) are dispensed into black 384-well plates, flat and clear bottom (Greiner, PNr. 781091) at a density of 200 cells per well in 60 μl RPMI-1640 ATCC-Formulation (Gibco #A10491)+10% FCS (fetal calf serum). […] For the TO time point measurement, untreated cells are analyzed at the time of compound addition. Plates are incubated for 120 h, and cell viability is measured using CellTiter-Glo luminescent cell viability reagent (Promega product code G7570). […]
Measured quantity: IC50 (nM)
Just the number please, in nM, no unit attached.

CC(C)n1c(=O)n([C@@H]2CCOC2)c2nc(-c3onc4c3CCC[C@@]43CCCc4sc(N)c(C#N)c43)nc(O[C@@H](C)[C@@H]3CCCN3C)c21 [I-32] :: 32
C[C@H](Oc1nc(-c2noc3c2CCC[C@@]32CCCc3sc(N)c(C#N)c32)nc2c1CN(C1COC1)C[C@]21CCOC1)[C@@H]1CC[C@H](C)N1C [II-17] :: 5
C[C@H](Oc1nc(-c2noc3c2CCC[C@@]32CCCc3sc(N)c(C#N)c32)nc2c1CN(c1ncccn1)[C@]21CCOC1)[C@@H]1CCCN1C [II-7a] :: 18
CO[C@@H]1C[C@@H]([C@H](C)Oc2nc(-c3onc4c3CCC[C@@]43CCCc4sc(N)c(C#N)c43)nc3c2CN(C2COC2)C[C@]32CCOC2)N(C)C1 [I-58] :: 5
Cc1nc2c(O[C@@H](C)[C@@H]3CCCN3C)nc(-c3onc4c3CCC[C@@]43CCCc4sc(N)c(C#N)c43)nc2n1[C@@H]1CCOC1 [I-39] :: 19

Shifting focus to the molecule that follows.
Problem: Recorded IC50 of C[C@H](Oc1nc(-c2onc3c2CCC[C@@]32CCCc3sc(N)c(C#N)c32)nc2c1ncn2[C@@H]1CCOC1)[C@@H]1CCCN1C [I-38] , please.
Result: 9

###

Procedure details: Metabolic (microsomal) stability assay, human liver microsomes (HLM)
Type: in vitro ADME
Test settings: 1 μM test compound, predicted clearance as percent of liver blood flow
Measured quantity: HLM QH (%)
Just the number please, in %, no unit attached.

C[C@H](Oc1nc(-c2onc3c2CCC[C@@]32CCCc3sc(N)c(C#N)c32)nc2c1n(C)c(=O)n2[C@@H]1CCOC1)[C@@H]1CCCN1C :: 26
C[C@H](Oc1nc(-c2onc3c2CCC[C@@]32CCCc3sc(N)c(C#N)c32)nc2c1n(C)c(=O)n2[C@@H]1CCOC1)[C@@H]1[C@@H](F)CCN1C :: 65

Shifting focus to the compound that follows.
Problem: Recorded HLM QH of Cc1cc2c(O[C@@H](C)[C@@H]3CCCN3C)nc(-c3onc4c3CCC[C@@]43CCCc4sc(N)c(C#N)c43)nc2n1[C@@H]1CCOC1 , please.
Result: 37

###

System: Ba/F3 cells KRAS G12D
Procedure details: Ba/F3 proliferation assay (KRAS G12D)
Format: cell-based
Test settings: Mus musculus, BaF3, 72 h, AlamarBlue viability
Experimental: Ba/F3 cells are ordered from DSMZ (ACC300, Lot17) and grown in RPMI-1640 (ATCC 30-2001)+10% FCS+10 ng/mL IL-3 at 37° C. in 5% […] atmosphere. Plasmids containing KRASG12 mutants (i.e. […], G12C, G12V) are obtained from GeneScript. To generate KRASG12-dependent Ba/F3 models, Ba/F3 cells are transduced with retroviruses containing vectors that harbor KRASG12 isoforms. Platinum-E cells (Cell Biolabs) are used for retrovirus packaging. Retrovirus is added to Ba/F3 cells. […]
pIC50: −log10 of the molar value.
Note to self: use criterion met only for pIC50 readings below 8; a reading exactly at 8 still gets criterion not met.

Below, 5 compounds whose answers are already recorded.
CO[C@H]1C[C@H](n2c(=O)n(C)c3c(O[C@@H](C)[C@@H]4CCCN4C)nc(-c4onc5c4CCC[C@@]54CCCc5sc(N)c(C#N)c54)nc32)C1 [I-16] :: criterion met
CCn1c(=O)n([C@@H]2CCCOC2)c2nc(-c3onc4c3CCC[C@@]43CCCc4sc(N)c(C#N)c43)nc(OCC3(CN4CCCC4)CC3)c21 [I-35] :: criterion met
C[C@H](Oc1nc(-c2onc3c2CCC[C@@]32CCCc3sc(N)c(C#N)c32)nc2c1n(C)c(=O)n2[C@@H]1CCOC1)C12CCCN1CCC2 [I-25] :: criterion met
CO[C@@H]1C[C@@H]([C@H](C)Oc2nc(-c3onc4c3CCC[C@@]43CCCc4sc(N)c(C#N)c43)nc3c2n(C)c(=O)n3[C@H]2COC[C@@H](C)C2)N(C)C1 [I-52] :: criterion met
C[C@H](Oc1nc(-c2noc3c2CCC[C@@]32CCCc3sc(N)c(C#N)c32)nc2c1CN(c1ncccn1)[C@@]21CCOC1)[C@@H]1CCCN1C [II-7b] :: criterion met

Problem: Is the reported pIC50 for CO[C@H]1C[C@@H](n2c(=O)n(C)c3c(O[C@@H](C)[C@@H]4CCCN4C)nc(-c4onc5c4CCC[C@@]54CCCc5sc(N)c(C#N)c54)nc32)C1 [I-31] strictly below 8?
Result: criterion met

Problem: Is the reported pIC50 for C[C@H](Oc1nc(-c2noc3c2CCC[C@@]32CCCc3sc(N)c(C#N)c32)nc2c1n(C)c(=O)n2[C@H]1CO[C@@H](C)C1)[C@@H]1CCCN1C [II-5] strictly below 8?
Result: criterion not met

Problem: Is the reported pIC50 for C[C@H](Oc1nc(-c2noc3c2CCC[C@@]32CCCc3sc(N)c(C#N)c32)nc2c1COC[C@@]21CCOC1)[C@@H]1CCCN1C [II-9a] strictly below 8?
Result: criterion met
